- ASSAY DETAILS: In vivo pharmacokinetic studies of dihydropyridines given orally with water, grapefruit juice or orange juice (plasma concentration, GC analysis)
- Design: species or system human (healthy subjects, hypertensive patients)
- TEST CONTEXT: human, plasma, po, 10 mg, nitrendipine 10 mg tablets, healthy subjects, n = 3, water; mean; zero to infinity
- Experimental: Hypertensive patients and healthy volunteers were given commercially available formulations of dihydropyridines in the morning after an overnight fast. The tablets were taken either with water, orange juice, or, as a source of flavonoids, 200 ml grapefruit juice. […] The maximum plasma concentration, Cmax, and the corresponding time to reach peak concentration, tmax, were recorded from the individual plasma concentration time curves of the dihydropyridine and its first metabolite. […]
READOUT NAME: AUC(0-inf) (µM·h)
One number for each entry, in µM·h.

Return reported AUC(0-inf); argument: CCOC(=O)C1=C(C)NC(C)=C(C(=O)OC)C1c1cccc([N+](=O)[O-])c1 (stereo not shown)
0.0151

Ref: patent US5229116A
